Entry source: ChEMBL document CHEMBL4828714

- Tested on: Staphylococcus aureus
- ASSAY_NAME: Antimicrobial activity against Staphylococcus aureus Sau 1862 assessed as inhibition of bacterial growth incubated for 16 to 18 hrs by broth micro dilution technique
- Assay type: functional
- CONDITION_DETAILS: time 16-18 hrs
PARAMETER: MIC (µg/mL)
Provide only the numeric value, understood in µg/mL.

Reference set, count: 2
| STRUCTURE_SMILES_STRING | MIC / µg/mL |
| --- | --- |
| CC(C)[C@H]1C(=O)O[C@H](C)[C@H](NC(=O)c2c3nc4c(C(=O)N[C@@H]5C(=O)N[C@H](C(C)C)C(=O)N6CCC[C@H]6C(=O)N(C)CC(=O)N(C)[C@@H](C(C)C)C(=O)O[C@@H]5C)cccc4oc-3c(Cl)c(=O)c2N)C(=O)N[C@H](C(C)C)C(=O)N2CCC[C@H]2C(=O)N(C)CC(=O)N1C | 8 |
| CC(C)[C@H]1C(=O)O[C@H](C)[C@H](NC(=O)c2c3nc4c(C(=O)N[C@@H]5C(=O)N[C@H](C(C)C)C(=O)N6CCC[C@H]6C(=O)N(C)CC(=O)N(C)[C@@H](C(C)C)C(=O)O[C@@H]5C)ccc(I)c4oc-3c(I)c(=O)c2N)C(=O)N[C@H](C(C)C)C(=O)N2CCC[C@H]2C(=O)N(C)CC(=O)N1C | 2 |

Next up:
**Query** Requested field: MIC. Item: COc1c2oc3c(OC)ccc(C(=O)N[C@@H]4C(=O)N[C@H](C(C)C)C(=O)N5CCC[C@H]5C(=O)N(C)CC(=O)N(C)[C@@H](C(C)C)C(=O)O[C@@H]4C)c3nc-2c(C(=O)N[C@@H]2C(=O)N[C@H](C(C)C)C(=O)N3CCC[C@H]3C(=O)N(C)CC(=O)N(C)[C@@H](C(C)C)C(=O)O[C@@H]2C)c(N)c1=O
**Result** 2

* * *

- Tested on: Micrococcus luteus
- ASSAY_NAME: Antimicrobial activity against Micrococcus luteus ML01 assessed as inhibition of bacterial growth incubated for 16 to 18 hrs by broth micro dilution technique
- Format: functional
- CONDITION_DETAILS: time 16-18 hrs
PARAMETER: MIC (µg/mL)
Provide only the numeric value, understood in µg/mL.

| STRUCTURE_SMILES_STRING | SYSTEM_UNDER_TEST | NUMERIC_RESULT |
| --- | --- | --- |
| CC(C)[C@H]1C(=O)O[C@H](C)[C@H](NC(=O)c2c3nc4c(C(=O)N[C@@H]5C(=O)N[C@H](C(C)C)C(=O)N6CCC[C@H]6C(=O)N(C)CC(=O)N(C)[C@@H](C(C)C)C(=O)O[C@@H]5C)ccc(Cl)c4oc-3c(Cl)c(=O)c2N)C(=O)N[C@H](C(C)C)C(=O)N2CCC[C@H]2C(=O)N(C)CC(=O)N1C | Micrococcus luteus | 0.06 |
| COc1c2oc3c(OC)ccc(C(=O)N[C@@H]4C(=O)N[C@H](C(C)C)C(=O)N5CCC[C@H]5C(=O)N(C)CC(=O)N(C)[C@@H](C(C)C)C(=O)O[C@@H]4C)c3nc-2c(C(=O)N[C@@H]2C(=O)N[C@H](C(C)C)C(=O)N3CCC[C@H]3C(=O)N(C)CC(=O)N(C)[C@@H](C(C)C)C(=O)O[C@@H]2C)c(N)c1=O | Micrococcus luteus | 0.5 |
| CC(C)[C@H]1C(=O)O[C@H](C)[C@H](NC(=O)c2c3nc4c(C(=O)N[C@@H]5C(=O)N[C@H](C(C)C)C(=O)N6CCC[C@H]6C(=O)N(C)CC(=O)N(C)[C@@H](C(C)C)C(=O)O[C@@H]5C)cccc4oc-3c(I)c(=O)c2N)C(=O)N[C@H](C(C)C)C(=O)N2CCC[C@H]2C(=O)N(C)CC(=O)N1C | Micrococcus luteus | 0.06 |
| CC(C)[C@H]1C(=O)O[C@H](C)[C@H](NC(=O)c2c3nc4c(C(=O)N[C@@H]5C(=O)N[C@H](C(C)C)C(=O)N6CCC[C@H]6C(=O)N(C)CC(=O)N(C)[C@@H](C(C)C)C(=O)O[C@@H]5C)ccc(F)c4oc-3c(F)c(=O)c2N)C(=O)N[C@H](C(C)C)C(=O)N2CCC[C@H]2C(=O)N(C)CC(=O)N1C | Micrococcus luteus | 2 |

Next up:
**Query** Requested field: MIC. Item: CC(C)[C@H]1C(=O)O[C@H](C)[C@H](NC(=O)c2c3nc4c(C(=O)N[C@@H]5C(=O)N[C@H](C(C)C)C(=O)N6CCC[C@H]6C(=O)N(C)CC(=O)N(C)[C@@H](C(C)C)C(=O)O[C@@H]5C)ccc(I)c4oc-3cc(=O)c2N)C(=O)N[C@H](C(C)C)C(=O)N2CCC[C@H]2C(=O)N(C)CC(=O)N1C
**Result** 0.06
